Answer each item with its documented % Annexin V/PI-positive cells, NCI-H520, 1.0 µg/ml mAb.
TEST TARGET: T1, human EpCAM (epithelial cell adhesion/activating molecule) (human, UniProt P16422 24-314)
T1 sequence: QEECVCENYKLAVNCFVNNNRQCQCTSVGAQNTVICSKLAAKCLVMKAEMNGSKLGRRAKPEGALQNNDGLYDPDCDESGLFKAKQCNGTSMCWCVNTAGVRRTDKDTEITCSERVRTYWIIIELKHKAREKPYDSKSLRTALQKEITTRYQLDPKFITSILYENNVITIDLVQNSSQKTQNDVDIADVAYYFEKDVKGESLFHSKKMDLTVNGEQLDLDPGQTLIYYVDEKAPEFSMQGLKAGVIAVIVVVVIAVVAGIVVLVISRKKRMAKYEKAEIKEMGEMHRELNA
EXPERIMENTAL PROTOCOL: cell-based or functional assay
Answers are plain numbers, in %.

Known % Annexin V/PI-positive cells, NCI-H520, 1.0 µg/ml mAb results, listed for orientation:
murine monoclonal antibody 2D11 (antibody, mouse IgG1, V domains shown, Mouse IgG1, kappa, from hybridoma; also called m322-2D11.19) VH: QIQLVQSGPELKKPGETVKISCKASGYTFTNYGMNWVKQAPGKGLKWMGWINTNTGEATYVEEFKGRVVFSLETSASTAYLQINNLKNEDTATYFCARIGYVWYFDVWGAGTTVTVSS VL: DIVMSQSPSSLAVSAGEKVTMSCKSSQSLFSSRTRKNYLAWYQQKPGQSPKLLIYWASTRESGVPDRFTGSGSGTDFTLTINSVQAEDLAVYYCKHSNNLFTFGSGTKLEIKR    41
murine monoclonal antibody 12H8 (antibody, mouse IgG2a, V domains shown, Mouse IgG2a, kappa, from hybridoma; also called m342-12H8.3; m12H8) VH: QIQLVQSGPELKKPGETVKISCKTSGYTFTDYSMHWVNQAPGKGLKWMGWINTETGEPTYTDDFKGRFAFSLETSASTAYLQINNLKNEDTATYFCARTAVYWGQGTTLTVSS VL: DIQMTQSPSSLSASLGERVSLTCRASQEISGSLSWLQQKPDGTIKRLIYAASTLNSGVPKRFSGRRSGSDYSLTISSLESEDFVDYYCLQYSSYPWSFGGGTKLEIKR    24
murine monoclonal antibody 4D2 (antibody, mouse IgG1, V domains shown, Mouse IgG1, kappa, from hybridoma; also called m338-4D2.20) VH: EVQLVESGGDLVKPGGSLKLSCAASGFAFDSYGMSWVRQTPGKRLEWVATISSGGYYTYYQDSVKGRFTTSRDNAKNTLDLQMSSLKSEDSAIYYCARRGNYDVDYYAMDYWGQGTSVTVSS VL: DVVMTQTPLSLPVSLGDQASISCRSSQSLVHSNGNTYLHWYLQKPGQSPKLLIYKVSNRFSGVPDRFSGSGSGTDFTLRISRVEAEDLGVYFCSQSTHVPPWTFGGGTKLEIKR    24

Consider the additional binder presented here.
query: Value lookup for % Annexin V/PI-positive cells, NCI-H520, 1.0 µg/ml mAb; key = murine monoclonal antibody 6D11 (antibody, mouse IgG1, V domains shown, Mouse IgG1, kappa, from hybridoma; also called m338-6D11.8) VH: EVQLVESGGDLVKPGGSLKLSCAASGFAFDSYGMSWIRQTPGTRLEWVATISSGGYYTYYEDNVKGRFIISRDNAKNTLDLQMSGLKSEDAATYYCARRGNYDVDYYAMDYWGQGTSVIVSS VL: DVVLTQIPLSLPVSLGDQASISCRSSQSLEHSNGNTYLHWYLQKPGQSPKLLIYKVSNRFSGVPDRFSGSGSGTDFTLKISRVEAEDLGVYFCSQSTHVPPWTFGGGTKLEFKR
result: 38
